Source listed as ChEMBL document CHEMBL1153991.

Consider the following log10(IC50) values measured on Coagulation factor X (Homo sapiens).
Sequence (P00742 41-179 limits assumed): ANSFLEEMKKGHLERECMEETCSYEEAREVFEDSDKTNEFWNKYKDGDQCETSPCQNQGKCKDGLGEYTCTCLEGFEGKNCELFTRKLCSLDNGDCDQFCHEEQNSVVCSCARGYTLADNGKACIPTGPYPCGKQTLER
Sequence (P00742 235-488 limits assumed): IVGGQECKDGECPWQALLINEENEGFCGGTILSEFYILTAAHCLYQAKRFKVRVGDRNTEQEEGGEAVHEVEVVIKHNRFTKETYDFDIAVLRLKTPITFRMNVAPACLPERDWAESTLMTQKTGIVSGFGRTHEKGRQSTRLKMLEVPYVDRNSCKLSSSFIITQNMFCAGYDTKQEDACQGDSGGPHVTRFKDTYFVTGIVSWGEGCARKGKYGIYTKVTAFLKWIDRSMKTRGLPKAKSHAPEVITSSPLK
endpoint-name: log10(IC50) (log10 of the value in nM)

[
  {
    "given-smiles": "CN1CCN=C1c1ccc(C(=O)Nc2ccccc2C(=O)Nc2ccc(Cl)cn2)cc1",
    "result-number": 1.30
  },
  {
    "given-smiles": "CONC(=N)c1ccc(C(=O)Nc2ccccc2C(=O)Nc2ccc(Cl)cn2)cc1",
    "result-number": 2.46
  },
  {
    "given-smiles": "N=C(c1ccc(C(=O)Nc2ccccc2C(=O)Nc2ccc(Cl)cn2)cc1)N1CCSCC1",
    "result-number": 1.08
  },
  {
    "given-smiles": "O=C(Nc1ccccc1C(=O)Nc1ccc(Cl)cn1)c1ccc(C2=NCCN2)cc1",
    "result-number": 2.50
  },
  {
    "given-smiles": "CN(C)NC(=N)c1ccc(C(=O)Nc2ccccc2C(=O)Nc2ccc(Cl)cn2)cc1",
    "result-number": 1.48
  },
  {
    "given-smiles": "O=C(Nc1ccccc1C(=O)Nc1ccc(Cl)cn1)c1ccc(C2=NCCCN2)cc1",
    "result-number": 2.35
  },
  {
    "given-smiles": "CNC(=N)c1ccc(C(=O)Nc2ccccc2C(=O)Nc2ccc(Cl)cn2)cc1",
    "result-number": 1.36
  },
  {
    "given-smiles": "CCNC(=N)c1ccc(C(=O)Nc2ccccc2C(=O)Nc2ccc(Cl)cn2)cc1",
    "result-number": 1.97
  },
  {
    "given-smiles": "CCN(C)C(=N)c1ccc(C(=O)Nc2ccccc2C(=O)Nc2ccc(Cl)cn2)cc1",
    "result-number": 0.78
  },
  {
    "given-smiles": "N=C(c1ccc(C(=O)Nc2ccccc2C(=O)Nc2ccc(Cl)cn2)cc1)N1CCNCC1",
    "result-number": 1.58
  },
  {
    "given-smiles": "N=C(c1ccc(C(=O)Nc2ccccc2C(=O)Nc2ccc(Cl)cn2)cc1)N1CCOCC1",
    "result-number": 0.85
  }
]
